Assay: Phase I study CXR1002-001: plasma pharmacokinetics (LC-MS/MS)
Type: in vivo, human
Conditions: human, plasma, oral, 50 mg, Patient 003 Dose 50 mg; 2 hr; read-out: Concentration
readoutName: concentration at 2 h (µM)
Lab book: enter the figure in µM, no units written.

Need concentration at 2 h, item O=C(O)C(F)(F)C(F)(F)C(F)(F)C(F)(F)C(F)(F)C(F)(F)C(F)(F)F [CXR1002]
24.5

====

Test: Phase I study CXR1002-001: plasma pharmacokinetics (LC-MS/MS)
Type: in vivo, human
Settings: human, plasma, oral, 1000 mg, Patient 040, 1000 mg, person, plasma, 3 hr; read-out: Concentration
readoutName: concentration at 3 h (µM)
Lab book: enter the figure in µM, no units written.

Need concentration at 3 h, item O=C(O)C(F)(F)C(F)(F)C(F)(F)C(F)(F)C(F)(F)C(F)(F)C(F)(F)F [CXR1002]
168

Values were extracted from patent US20130029928A1.
